system: HOP-62 NSCLC; assay: NCI-60 one-dose screen, 48 h; settings: 10 µM unless noted
Compounds without any hit were thinned out: in the full panel of roughly 83,000, 20% have a hit. Calls of active or inactive are those of the source. The calls were made as follows: active = growth percent below 10; inactive = the rest.
Possible outcomes: YES = active, NO = inactive

molecule: COC(=O)C1=C(C)NC(C)=C(C(=O)OCC(C)C)C1c1ccccc1[N+](=O)[O-] (stereo not given)
label-value: NO
--
molecule: C[C@H]1[C@H](C)CC[C@]2(C(=O)O)CC[C@]3(C)C(=CC[C@@H]4[C@@]5(C)C[C@@H](Cc6cn([C@@H]7O[C@H](CO)[C@@H](O)[C@H](O)[C@H]7O)nn6)[C@H](O)C(C)(C)[C@@H]5CC[C@]43C)[C@H]12
label-value: NO
--
molecule: CCNC(=O)Oc1ccc(/C(=C(/C)Cc2ccc(OC)cc2)c2ccc(OCCN3CCCC3)cc2)cc1
label-value: NO
--
molecule: CC1(C)CC[C@]2(C(=O)N3CCOCC3)CC[C@]3(C)C(=CC[C@@H]4[C@@]5(C)C/C(=C/c6ccncc6)C(=O)C(C)(C)[C@@H]5CC[C@]43C)[C@@H]2C1
label-value: NO
--
molecule: C/C(=N\Nc1nc(C)cs1)c1cc2ccccc2o1
label-value: NO
--
molecule: Cc1cc(C)c(-c2c(O)c(Br)c(-c3c(C)cc(C)c(Br)c3C)c(O)c2Br)c(C)c1Br
label-value: NO
--
molecule: Cc1cc(N2CCN(C)CC2)nc(NCc2cc(Nc3ccnc4cc(Cl)ccc34)ccc2F)n1
label-value: YES
--
molecule: O=C(NCc1ccccc1O)c1cccc2ccccc12
label-value: NO
--
molecule: COc1cccc(/C=C2\COc3ccc(O)cc3C2=O)c1
label-value: NO
--
molecule: CN(C)c1ccc(C(=NO)c2ccc(N(C)C)cc2)cc1
label-value: NO
